The origin of these recorded values is ChEMBL document CHEMBL4609980.

Form field: IC50 (one value per entry).
Molecular target: Falcipain 2 (Plasmodium falciparum, UniProt Q9N6S8)
Sequence (Q9N6S8 whole entry): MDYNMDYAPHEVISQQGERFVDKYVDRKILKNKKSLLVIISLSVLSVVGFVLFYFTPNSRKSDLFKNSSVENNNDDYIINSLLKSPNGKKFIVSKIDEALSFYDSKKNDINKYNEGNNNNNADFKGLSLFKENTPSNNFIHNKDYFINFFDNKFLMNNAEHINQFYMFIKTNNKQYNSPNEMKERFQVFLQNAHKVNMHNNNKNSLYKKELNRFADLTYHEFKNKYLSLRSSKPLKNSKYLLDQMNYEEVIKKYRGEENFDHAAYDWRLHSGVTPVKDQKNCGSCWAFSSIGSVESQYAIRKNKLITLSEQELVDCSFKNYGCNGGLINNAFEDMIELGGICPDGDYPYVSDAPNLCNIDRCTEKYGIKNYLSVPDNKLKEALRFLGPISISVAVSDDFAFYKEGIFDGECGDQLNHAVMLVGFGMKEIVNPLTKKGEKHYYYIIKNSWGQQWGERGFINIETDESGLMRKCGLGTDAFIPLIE
Assay: Inhibition of recombinant Plasmodium falciparum falcipain-2 expressed in bacterial expression system using ZFR-AMC as substrate measured for 30 mins by fluorimetric assay
Express it in µM; write the number only.

Sample Smiles	IC50 / µM
O=C(NCCCNC(=O)c1cc2ccccc2[nH]1)c1ccc(-c2ccccc2)cc1	12.2

Task: Please report IC50 for the following molecule: CN1CCCc2cc(CCNC(=O)C(=O)Nc3ccc4c(c3)OCO4)ccc21
Output: 14.7

###

Form field: inhibition (one value per entry).
Biological target: Falcipain 2 (Plasmodium falciparum)
Sequence (whole entry): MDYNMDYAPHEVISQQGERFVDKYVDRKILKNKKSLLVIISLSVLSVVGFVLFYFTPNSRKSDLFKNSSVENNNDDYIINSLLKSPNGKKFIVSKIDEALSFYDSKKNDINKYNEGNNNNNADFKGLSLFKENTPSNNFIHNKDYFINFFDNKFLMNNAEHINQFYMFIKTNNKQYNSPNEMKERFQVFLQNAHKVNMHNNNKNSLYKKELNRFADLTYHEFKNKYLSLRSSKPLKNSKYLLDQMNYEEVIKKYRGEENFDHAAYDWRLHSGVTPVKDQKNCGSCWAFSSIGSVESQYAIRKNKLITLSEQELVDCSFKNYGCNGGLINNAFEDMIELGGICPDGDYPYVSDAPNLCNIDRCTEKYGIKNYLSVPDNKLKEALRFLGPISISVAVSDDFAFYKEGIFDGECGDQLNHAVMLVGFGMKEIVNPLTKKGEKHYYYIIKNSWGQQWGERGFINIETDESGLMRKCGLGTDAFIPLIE
Assay: Inhibition of recombinant Plasmodium falciparum falcipain-2 expressed in bacterial expression system using ZFR-AMC as substrate at 100 uM measured for 30 mins by fluorimetric assay relative to control
Express it in %; write the number only.

Compound	inhibition (%)
Cc1cccc(O)c1OC1CCN(CC(=O)Nc2ccc(CN3CCOCC3)cc2)CC1	43
O=C(NCCCNC(=O)c1cc2ccccc2[nH]1)c1ccc(-c2ccccc2)cc1	51
O=C1C[C@H](C(=O)Nc2ccccc2)NC(N2CCN(Cc3ccccc3)CC2)=N1	44
O=C1CCc2cc(CNC(=O)Cn3ncc4ccccc4c3=O)ccc2C1	42

Task: Please report inhibition for the following compound: O=C1CN(CC(=O)NC2CCOc3ccccc32)CCN1 (stereo not given)
Output: 25

Task: Please report inhibition for the following compound: Cc1ccc(NCC(=O)NC2CC2)cc1S(=O)(=O)C1CCCCC1
Output: 19

Task: Please report inhibition for the following compound: O=C(CNC(=O)N1CCN(Cc2ccccc2)CC1)NC1=CC2=CC=N[C@@H]2C=C1
Output: 39

Task: Please report inhibition for the following compound: CCc1ccc(NC(=O)CN2CCN(c3nc4ccccc4s3)CC2)cc1
Output: 43

Task: Please report inhibition for the following compound: O=C(CN1CCC(c2ccccc2)C1)NC1CCC2(CC1)OCCO2 (stereo not given)
Output: 22

Task: Please report inhibition for the following compound: O=C(CCC1=CC(=O)C2C(=N1)SC1=C2CCCC1)NC1CCCCNC1=O (stereo not given)
Output: 49
